- Tested on: SF-268 CNS
- assay: NCI tumour cell line growth inhibition, 48 h
Entries and their measured TGI follow.

Previously resolved entries follow.
compound	test system	result
Clc1ccc(-c2nn3ncccc3c2-c2ccnc(Nc3ccccc3)n2)cc1	SF-268 CNS	> 25 µM
COc1cc2c3c(n(CCN(C)C)c(=O)c2cc1OC)-c1cc2c(cc1C3=O)OCO2	SF-268 CNS	> 100 µM
Cc1nc2ccccc2c(=O)n1NC(=O)c1ccccc1O	SF-268 CNS	> 100 µM
C#CCOC(=O)C(N)CSSCC(N)C(=O)O (stereo not drawn)	SF-268 CNS	> 100 µM
C/C(=N/NC(=O)C(N)=O)C(CC(C(=O)Nc1ccccc1C)/C(C)=N\NC(=O)C(N)=O)C(=O)Nc1ccccc1C (stereo not drawn)	SF-268 CNS	> 100 µM

# ---- query compound ----
Can you look up the measured TGI of CCCCCC(=O)OCC1(CO)C/C(=C\CC(C(C)C)C(C)C)C(=O)O1 (stereo not drawn) for me?
> 100 µM

All values here come from PubChem BioAssay (NCI).
